condition-parameters: in acetone, 318.15 K
readout-name: solubility (mole fraction)
Give bare numbers.

Query block: # lookup: solubility (mole fraction) of `COC(=O)c1cc(O)c(O)c(O)c1`
Result block: 0.13

----------
condition-parameters: in isobutanol, 303.15 K
readout-name: solubility (mole fraction)

Query block: Given the compound `COC(=O)c1cc(O)c(O)c(O)c1` , what is its reported solubility (mole fraction)?
Result block: 0.0266

----------
condition-parameters: in methyl acetate, 328.15 K
readout-name: solubility (mole fraction)
Give bare numbers.

Query block: May I ask what solubility (mole fraction) has been recorded for `COC(=O)c1cc(O)c(O)c(O)c1` ?
Result block: 0.0643

Measured values drawn from BigSolDB 2.1 for this set.
